target: Mitogen-activated protein kinase kinase kinase 20 (Homo sapiens, UniProt Q9NYL2); note: in the data inactive means no Kd found up to 30 µM
Sequence (Q9NYL2 whole entry): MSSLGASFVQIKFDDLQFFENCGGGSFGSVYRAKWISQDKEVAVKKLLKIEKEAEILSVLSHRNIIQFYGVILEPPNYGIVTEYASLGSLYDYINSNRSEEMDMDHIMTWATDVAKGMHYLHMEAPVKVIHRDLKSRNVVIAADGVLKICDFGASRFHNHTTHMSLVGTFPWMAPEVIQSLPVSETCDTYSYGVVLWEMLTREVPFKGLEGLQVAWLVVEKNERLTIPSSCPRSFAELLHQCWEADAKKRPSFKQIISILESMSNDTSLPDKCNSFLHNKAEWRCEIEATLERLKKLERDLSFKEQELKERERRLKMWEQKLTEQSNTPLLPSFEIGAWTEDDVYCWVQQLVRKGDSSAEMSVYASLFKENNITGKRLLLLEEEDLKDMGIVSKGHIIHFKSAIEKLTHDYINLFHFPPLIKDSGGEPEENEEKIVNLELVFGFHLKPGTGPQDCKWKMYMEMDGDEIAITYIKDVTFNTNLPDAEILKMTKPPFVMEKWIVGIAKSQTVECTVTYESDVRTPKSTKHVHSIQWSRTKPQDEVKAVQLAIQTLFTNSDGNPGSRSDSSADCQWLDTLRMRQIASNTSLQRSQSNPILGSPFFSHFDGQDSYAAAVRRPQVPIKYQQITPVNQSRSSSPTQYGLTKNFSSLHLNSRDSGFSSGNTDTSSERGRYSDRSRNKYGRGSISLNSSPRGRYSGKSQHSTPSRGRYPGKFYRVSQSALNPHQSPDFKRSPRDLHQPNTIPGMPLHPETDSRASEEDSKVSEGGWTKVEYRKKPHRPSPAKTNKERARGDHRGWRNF
Active and inactive are the calls of the source.
Pick one and only one: active, inactive

## Task Just curious, what result did O=c1[nH]c([C@@H]2CCCN2)nc2c1oc1ccc(Cl)cc12 get here?
## Result inactive

New cases:
## Task Identify the outcome logged in this assay for the compound shown: COc1cc(F)c(F)c(Nc2ccc(I)cc2F)c1NS(=O)(=O)C1(C[C@H](O)CO)CC1
## Result inactive

## Task Try the compound CC1(COc2ccc3c(c2)ncn3-c2ccc3cccc(N4CCC(N)CC4)c3n2)COC1
## Result inactive

## Task Query C=CC(=O)Nc1cc(Nc2nccc(-c3cn(C)c4ccccc34)n2)c(OC)cc1N(C)CCN(C)C next
## Result inactive

## Task What about this compound? COCCN1CCN(Cc2ccc(-c3n[nH]c4c3C(=O)c3c(NC(=O)NN5CCOCC5)cccc3-4)cc2)CC1
## Result active

## Task Similarly, Cc1cc(C(=O)Nc2cc(Oc3ccc4nc(NC(=O)C5CC5)cn4n3)ccc2C)n(C)n1 ?
## Result inactive
